Values from patent US20240336909A1

- target or system: T1, human EpCAM protein (human, UniProt P16422 24-265)
- T1 construct: biotinylated in the Octet assays; also called hu EpCAM; biotinylated human EpCAM protein
- T1 sequence (looked up): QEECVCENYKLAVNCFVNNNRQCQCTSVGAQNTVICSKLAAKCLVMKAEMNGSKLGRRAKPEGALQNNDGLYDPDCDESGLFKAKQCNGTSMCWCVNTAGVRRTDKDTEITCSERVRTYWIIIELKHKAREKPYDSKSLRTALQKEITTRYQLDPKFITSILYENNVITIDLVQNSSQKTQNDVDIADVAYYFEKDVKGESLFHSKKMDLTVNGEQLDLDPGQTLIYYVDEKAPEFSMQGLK
- measurement description: colorimetric ELISA
observed property: Human EpCAM/Control (ratio)
API: value field is a number in ratio; no unit string.

Solved entries (count: 3):
[[record]]
binder = "Llama anti-EpCAM single domain antibody EPL43 (VHH, E. coli periplasmic extract) VHH: QVQLQESGGGLVQTGGSLRLSCAASESISSFIAVGWYRQAPGKERELVAGINRSGFTYYTDSVKGRFSISRDNAKNTVLLQMTSLKPEDTAVYYCNAGGLYFSNAYTQGDYWGQGTQVTVSS"
observed_property = "Human EpCAM/Control"
number = 13

[[record]]
binder = "Llama anti-EpCAM single domain antibody EPL86 (VHH, E. coli periplasmic extract) VHH: QVQLQESGGGLVQPGGSLRLSCAASGFTFSDWAMSWVRQAPGKGLEWVSGIHYGDHTTHYADFVKGRFTISRDDAKNTLYLQMNSLKPEDTAVYYCARGSTKGQGTQVTVSS"
observed_property = "Human EpCAM/Control"
number = 8

[[record]]
binder = "Llama anti-EpCAM single domain antibody EPL83 (VHH, E. coli periplasmic extract) VHH: QVQLQESGGGLVQAGGSLRLSCAVSGSIFSLNTLAWYRQAPGRQRDLIARITGGGTTVYADSVKGRFTISRDNAKNTVYLQMNSLKPEDTAVYYCNLMVRHPSGSTYEYWGQGTQVTVSS"
observed_property = "Human EpCAM/Control"
number = 3


Ask: Which Human EpCAM/Control is reported for this binder? Llama anti-EpCAM single domain antibody EPL20 (VHH, E. coli periplasmic extract) VHH: QVQLQESGGGLVQAGGSLKLSCAASGNVFRAATMAWYRQAPEKQREMVATIASGGTTNYADFVKGRFTISRDNAKNTVYLQMNTLKPEDTAVYYCNAGYLTSLGPKNYWGQGTQVTVSS
Result: 6
